target: N-formyl peptide receptor 2 (Homo sapiens); assay: Agonist activity at FPRL1 (unknown origin) expressed in CHO-K1 cells assessed as stimulation of beta-arrestin recruitment incubated for 150 mins by beta-galactosidase based PathHunter assay; assay type: functional, cell-based; details: read-out: EC50
Sequence (P25090 whole entry): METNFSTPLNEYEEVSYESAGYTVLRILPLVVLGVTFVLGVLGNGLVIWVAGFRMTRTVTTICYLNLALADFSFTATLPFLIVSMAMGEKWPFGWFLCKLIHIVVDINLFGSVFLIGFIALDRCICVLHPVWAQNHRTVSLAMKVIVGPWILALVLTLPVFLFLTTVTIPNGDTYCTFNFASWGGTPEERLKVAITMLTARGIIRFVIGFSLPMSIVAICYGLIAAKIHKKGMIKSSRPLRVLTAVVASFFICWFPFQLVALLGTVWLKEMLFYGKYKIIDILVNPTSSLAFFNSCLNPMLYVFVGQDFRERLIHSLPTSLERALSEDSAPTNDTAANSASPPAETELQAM
attribute.measured: pEC50
Give bare numbers, as −log10 of the molar value.

Worked examples follow.
CC(C)(C)OC(=O)N1CCC[C@H](N2CCC(NC(=O)Nc3ccc(Br)cc3)C2=O)C1 (stereo in doubt; 19); 5.86
O=C(Nc1ccc(Br)cc1)NC1CCN(C2CCN(Cc3ccccc3)C2)C1=O (stereo in doubt; 17); 5.86

Count: 3. Required value per item: pEC50.
1. O=C(Nc1ccc(Br)cc1)NC1CCN(C2CCN(Cc3ccccc3)C2)C1=O (stereo in doubt; 18)
2. O=C(Nc1ccc(Br)cc1)NC1CCN(C2CCNCC2)C1=O (stereo not given)
3. Cc1nn(C)cc1N1CCC(NC(=O)Nc2ccc(Br)cc2)C1=O (stereo not given)

*A*
1: 6.15; 2: 5.99; 3: 6.13
